B1: library; numbered along this chain (parent)
chain: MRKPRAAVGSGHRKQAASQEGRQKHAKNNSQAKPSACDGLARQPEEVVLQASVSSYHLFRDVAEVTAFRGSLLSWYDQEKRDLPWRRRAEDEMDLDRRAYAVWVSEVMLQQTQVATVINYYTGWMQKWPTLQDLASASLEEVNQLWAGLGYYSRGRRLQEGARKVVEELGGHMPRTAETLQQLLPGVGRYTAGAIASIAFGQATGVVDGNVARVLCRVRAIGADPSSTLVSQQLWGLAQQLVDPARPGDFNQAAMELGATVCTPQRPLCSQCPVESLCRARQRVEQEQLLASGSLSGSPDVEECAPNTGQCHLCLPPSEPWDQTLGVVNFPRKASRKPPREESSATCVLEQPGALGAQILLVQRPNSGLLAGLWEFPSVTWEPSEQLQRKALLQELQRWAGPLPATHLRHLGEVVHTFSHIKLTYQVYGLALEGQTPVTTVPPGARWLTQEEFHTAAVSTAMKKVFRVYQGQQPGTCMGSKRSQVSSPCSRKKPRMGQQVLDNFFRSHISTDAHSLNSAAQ

variants of: B1; assay: 8OG:A repair function score (normalized; synonymous = 0, nonsense = -1) (normalized log-likelihood score); higher = more repair activity (WT-like); details: with 8OG:A DNA repair reporter (GFP) in HEK-293 MUTYH KO cells;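 further: cells sorted at 72 h after reporter transfection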
Entries and their 8OG:A repair function score values follow.
# print the numeric value only

# annotated cases, reported 8OG:A repair function score shown
variantnotation=L370N measvalue=-0.379
variantnotation=M478N measvalue=-0.0119
variantnotation=C269M measvalue=-1.18
variantnotation=R446N measvalue=-0.508
variantnotation=Q182R measvalue=-0.0127
variantnotation=R219F measvalue=-0.485

INPUT: Tell me 8OG:A repair function score reported for L234C
OUTPUT: -0.521

INPUT: Supply recorded 8OG:A repair function score for L40W here.
OUTPUT: 0.123

INPUT: Determine its reported 8OG:A repair function score: R98S
OUTPUT: -0.2

INPUT: Output measured 8OG:A repair function score for this item: V362W
OUTPUT: -0.624
